Experiment: Acute toxicity in po dosed mouse
Format: organism-based
Settings: in vivo
measurement.name: LD50 (mg/kg)
Hi! Could you send only the number? It should be in mg/kg, unit omitted.

# annotated cases, reported LD50 shown
Give the reported LD50 for this compound. `O=C(O)Cc1ccc2c(c1)C(=O)/C(=C/c1ccc(Cl)cc1)C2`
1600

Give the reported LD50 for this compound. CC1CC(=O)c2cc(-c3ccccc3)ccc21 (configuration not stated)
1600

We next turn to a different compound, shown below.
Give the reported LD50 for this compound. `O=C(O)Cc1ccc2c(c1)C(=O)CC2`
1600

* * *

LD50 for assorted molecules
Test: Acute toxicity in po dosed mouse
Format: organism-based
Conditions: in vivo

# annotated cases, reported LD50 shown
Give the reported LD50 for this molecule. O=C(O)Cc1ccc2c(c1)C(=O)CC2C1CCCCC1 (stereo unspecified)
1200 mg/kg

Give the reported LD50 for this molecule. `O=C(O)Cc1ccc2c(c1)C(=O)/C(=C/c1ccccc1)C2`
1600 mg/kg

Give the reported LD50 for this molecule. O=C([O-])Cc1ccc2c(c1)CCC2C1CCCCC1.[Na+] (stereo unspecified)
1200 mg/kg

Give the reported LD50 for this molecule. O=C(O)Cc1ccc2c3c(cccc13)C(c1ccccc1)C2 (stereo unspecified)
400 mg/kg

Give the reported LD50 for this molecule. CC(C(=O)O)c1ccc2c3c(cccc13)C(c1ccccc1)C2 (stereo unspecified)
1600 mg/kg

We next turn to a different molecule, shown below.
Give the reported LD50 for this molecule. O=C(O)CC1CC(c2ccccc2)c2ccccc21 (stereo unspecified)
1600 mg/kg

* * *

Test system: Rattus norvegicus
Test: Antiinflammatory activity against rat adjuvant arthritis model assessed as reduction of swelling in non-injected foot at 100 mg/kg, po administered for 16 days
Assay type: functional
Details: 384 h
measurement.name: inhibition in vivo at 100 mg/kg (%)
Hi! Could you send only the number? It should be in %, unit omitted.

Give the reported inhibition in vivo at 100 mg/kg for this molecule. O=C1CC(c2ccccc2)c2ccccc21 (stereo unspecified)
36

Give the reported inhibition in vivo at 100 mg/kg for this molecule. O=C(O)Cc1ccc2c3c(cccc13)C(c1ccccc1)C2 (stereo unspecified)
0

Give the reported inhibition in vivo at 100 mg/kg for this molecule. O=C(O)Cc1ccc(C2CC(=O)c3ccccc32)cc1 (stereo unspecified)
52

More entries:
Give the reported inhibition in vivo at 100 mg/kg for this molecule. CC(C(=O)O)c1ccc2c(c1)C(=O)/C(=C/c1ccc(Cl)cc1)C2 (stereo unspecified)
53

Give the reported inhibition in vivo at 100 mg/kg for this molecule. `O=C(O)Cc1ccc2c(c1)C(=O)/C(=C/c1ccccc1)C2`
25

Give the reported inhibition in vivo at 100 mg/kg for this molecule. `O=C(O)Cc1ccc2c(c1)C(=O)/C(=C/c1ccc(Cl)cc1)C2`
43

* * *

System: Rattus norvegicus
Assay: Antiinflammatory activity in rat assessed as reduction of carrageenan-induced foot edema at 100 mg/kg, po administered as two doses
Format: functional
inhibition in vivo at 100 mg/kg for assorted compounds
Hi! Could you send only the number? It should be in %, unit omitted.

# annotated cases, reported inhibition in vivo at 100 mg/kg shown
Give the reported inhibition in vivo at 100 mg/kg for this compound. `O=C(O)Cc1ccc2c(c1)C(=O)CC2`
0

Give the reported inhibition in vivo at 100 mg/kg for this compound. O=C(O)Cc1ccc(C2CC(=O)c3ccccc32)cc1 (configuration not stated)
36

Give the reported inhibition in vivo at 100 mg/kg for this compound. O=C([O-])Cc1ccc2c(c1)CCC2C1CCCCC1.[Na+] (configuration not stated)
28

Give the reported inhibition in vivo at 100 mg/kg for this compound. O=C1CC(c2ccccc2)c2ccccc21 (configuration not stated)
48

Give the reported inhibition in vivo at 100 mg/kg for this compound. O=C(O)CC1CC(c2ccccc2)c2ccccc21 (configuration not stated)
0

Give the reported inhibition in vivo at 100 mg/kg for this compound. CC1CC(=O)c2cc(-c3ccccc3)ccc21 (configuration not stated)
7

Give the reported inhibition in vivo at 100 mg/kg for this compound. CC1CCc2cc(-c3ccccc3)ccc21 (configuration not stated)
35

Give the reported inhibition in vivo at 100 mg/kg for this compound. `O=C(O)Cc1ccc2c(c1)C(=O)/C(=C/c1ccc(Cl)cc1)C2`
0

More entries:
Give the reported inhibition in vivo at 100 mg/kg for this compound. `O=C(O)Cc1ccc2c(c1)C(=O)/C(=C/c1ccccc1)C2`
26

Give the reported inhibition in vivo at 100 mg/kg for this compound. CC(C(=O)O)c1ccc2c3c(cccc13)C(c1ccccc1)C2 (configuration not stated)
44

Give the reported inhibition in vivo at 100 mg/kg for this compound. O=C(O)Cc1ccc2c(c1)C(=O)CC2C1CCCCC1 (configuration not stated)
8

Give the reported inhibition in vivo at 100 mg/kg for this compound. O=C(O)Cc1ccc2c3c(cccc13)C(c1ccccc1)C2 (configuration not stated)
53

* * *

Experiment: Acute toxicity in po dosed mouse
Format: organism-based
Conditions: in vivo
LD50 for assorted molecules
Hi! Could you send only the number? It should be in mg/kg, unit omitted.

# annotated cases, reported LD50 shown
Give the reported LD50 for this molecule. O=C1CC(c2ccccc2)c2ccccc21 (centres undefined)
1600

Give the reported LD50 for this molecule. CC1CCc2cc(-c3ccccc3)ccc21 (centres undefined)
1600

Give the reported LD50 for this molecule. O=C(O)Cc1ccc(C2CC(=O)c3ccccc32)cc1 (centres undefined)
1600

We next turn to a different molecule, shown below.
Give the reported LD50 for this molecule. O=C(O)CCC1CC(c2ccccc2)c2ccccc21 (centres undefined)
300

// data source = ChEMBL document CHEMBL3243932
